# experiment description: Octanol-water partition coefficient, log P of the compound
# Format: physicochemical
# assay context: read-out: logP

[
  {
    "molecule": "COc1cc([C@@H]2c3cc4c(cc3[C@@H](NC(=O)[C@H](Cc3cc5ccccc5[nH]3)N3C(=O)C5C6CCC(O6)C5C3=O)[C@H]3COC(=O)[C@H]23)OCO4)cc(OC)c1O (stereo partly specified)",
    "logP": 1.69
  },
  {
    "molecule": "COc1cc([C@@H]2c3cc4c(cc3[C@@H](NC(=O)[C@H](Cc3ccccc3)N3C(=O)C5C6CCC(O6)C5C3=O)[C@H]3COC(=O)[C@H]23)OCO4)cc(OC)c1O (stereo partly specified)",
    "logP": 2.27
  },
  {
    "molecule": "COc1cc([C@@H]2c3cc4c(cc3[C@@H](NC(=O)[C@H](CC(C)C)N3C(=O)C5C6CCC(O6)C5C3=O)[C@H]3COC(=O)[C@H]23)OCO4)cc(OC)c1O (stereo partly specified)",
    "logP": 1.83
  },
  {
    "molecule": "COc1cc([C@@H]2c3cc4c(cc3[C@@H](NC(=O)[C@H](c3ccccc3)N3C(=O)C5C6CCC(O6)C5C3=O)[C@H]3COC(=O)[C@H]23)OCO4)cc(OC)c1O (stereo partly specified)",
    "logP": 1.99
  },
  {
    "molecule": "COc1cc([C@@H]2c3cc4c(cc3[C@@H](NC(=O)[C@H](C)N3C(=O)C5C6CCC(O6)C5C3=O)[C@H]3COC(=O)[C@H]23)OCO4)cc(OC)c1O (stereo partly specified)",
    "logP": 0.62
  },
  {
    "molecule": "COc1cc([C@@H]2c3cc4c(cc3[C@@H](NC(=O)[C@H](C(C)C)N3C(=O)C5C6CCC(O6)C5C3=O)[C@H]3COC(=O)[C@H]23)OCO4)cc(OC)c1O (stereo partly specified)",
    "logP": 1.48
  }
]

* * *

# experiment description: Cytotoxicity against human HCT8 cells measured after 48 hrs by MTT assay
# Format: functional, cell-based
# assay context: HCT-8, 48 h
pIC50: −log10 of the molar value.
# if value of pIC50 reaches 5, tag rule met; if it stays below, tag rule not met

[
  {
    "compound": "COc1cc([C@@H]2c3cc4c(cc3[C@@H](NC(=O)[C@H](c3ccccc3)N3C(=O)C5C6CCC(O6)C5C3=O)[C@H]3COC(=O)[C@H]23)OCO4)cc(OC)c1O (stereo partly drawn)",
    "class name": "rule not met"
  },
  {
    "compound": "COc1cc([C@@H]2c3cc4c(cc3[C@@H](NC(=O)CCN3C(=O)C5C6CCC(O6)C5C3=O)[C@H]3COC(=O)[C@H]23)OCO4)cc(OC)c1O (stereo partly drawn)",
    "class name": "rule not met"
  },
  {
    "compound": "COc1cc([C@@H]2c3cc4c(cc3[C@@H](NC(=O)CCCN3C(=O)C5C6CCC(O6)C5C3=O)[C@H]3COC(=O)[C@H]23)OCO4)cc(OC)c1O (stereo partly drawn)",
    "class name": "rule met"
  },
  {
    "compound": "COc1cc([C@@H]2c3cc4c(cc3[C@@H](NC(=O)[C@H](Cc3cc5ccccc5[nH]3)N3C(=O)C5C6CCC(O6)C5C3=O)[C@H]3COC(=O)[C@H]23)OCO4)cc(OC)c1O (stereo partly drawn)",
    "class name": "rule not met"
  },
  {
    "compound": "COc1cc([C@@H]2c3cc4c(cc3[C@@H](NC(=O)[C@H](CC(C)C)N3C(=O)C5C6CCC(O6)C5C3=O)[C@H]3COC(=O)[C@H]23)OCO4)cc(OC)c1O (stereo partly drawn)",
    "class name": "rule not met"
  },
  {
    "compound": "CC[C@H](C)[C@@H](C(=O)N[C@@H]1c2cc3c(cc2[C@@H](c2cc(OC)c(O)c(OC)c2)[C@H]2C(=O)OC[C@@H]21)OCO3)N1C(=O)C2C3CCC(O3)C2C1=O (stereo partly drawn)",
    "class name": "rule not met"
  },
  {
    "compound": "COc1cc([C@@H]2c3cc4c(cc3[C@@H](NC(=O)c3ccc(N5C(=O)C6C7CCC(O7)C6C5=O)cc3)[C@H]3COC(=O)[C@H]23)OCO4)cc(OC)c1O (stereo partly drawn)",
    "class name": "rule met"
  },
  {
    "compound": "COc1cc([C@@H]2c3cc4c(cc3[C@@H](NC(=O)[C@H](C)N3C(=O)C5C6CCC(O6)C5C3=O)[C@H]3COC(=O)[C@H]23)OCO4)cc(OC)c1O (stereo partly drawn)",
    "class name": "rule not met"
  },
  {
    "compound": "COc1cc([C@@H]2c3cc4c(cc3[C@@H](NC(=O)CN3C(=O)C5C6CCC(O6)C5C3=O)[C@H]3COC(=O)[C@H]23)OCO4)cc(OC)c1O (stereo partly drawn)",
    "class name": "rule not met"
  }
]

* * *

# experiment description: Octanol-water partition coefficient, log P of the compound
# Assay type: physicochemical
# assay context: read-out: logP
Kindly return label 1 if reported logP is no lower than 0.4; return label 0 if it is lower.

[
  {
    "compound": "COc1cc([C@@H]2c3cc4c(cc3[C@@H](NC(=O)CN3C(=O)C5C6CCC(O6)C5C3=O)[C@H]3COC(=O)[C@H]23)OCO4)cc(OC)c1O (stereo partly specified)",
    "class name": "label 0"
  },
  {
    "compound": "COc1cc([C@@H]2c3cc4c(cc3[C@@H](NC(=O)c3ccc(N5C(=O)C6C7CCC(O7)C6C5=O)cc3)[C@H]3COC(=O)[C@H]23)OCO4)cc(OC)c1O (stereo partly specified)",
    "class name": "label 1"
  },
  {
    "compound": "COc1cc([C@@H]2c3cc4c(cc3[C@@H](NC(=O)[C@H](CCSC)N3C(=O)C5C6CCC(O6)C5C3=O)[C@H]3COC(=O)[C@H]23)OCO4)cc(OC)c1O (stereo partly specified)",
    "class name": "label 1"
  },
  {
    "compound": "COc1cc([C@@H]2c3cc4c(cc3[C@@H](NC(=O)CCCN3C(=O)C5C6CCC(O6)C5C3=O)[C@H]3COC(=O)[C@H]23)OCO4)cc(OC)c1O (stereo partly specified)",
    "class name": "label 1"
  },
  {
    "compound": "CC[C@H](C)[C@@H](C(=O)N[C@@H]1c2cc3c(cc2[C@@H](c2cc(OC)c(O)c(OC)c2)[C@H]2C(=O)OC[C@@H]21)OCO3)N1C(=O)C2C3CCC(O3)C2C1=O (stereo partly specified)",
    "class name": "label 1"
  }
]

* * *

# experiment description: Cytotoxicity against human WI38 cells measured after 48 hrs by MTT assay
# Assay type: toxicity, cell-based, WI-38
Entries are grouped by IC50 at 48 h into these classes: lower band: < 30 µM; central band: ≥ 30 µM and < 40 µM; upper band: ≥ 40 µM

[
  {
    "compound": "COc1cc([C@@H]2c3cc4c(cc3[C@@H](NC(=O)CCN3C(=O)C5C6CCC(O6)C5C3=O)[C@H]3COC(=O)[C@H]23)OCO4)cc(OC)c1O (stereo partly specified)",
    "class name": "upper band"
  },
  {
    "compound": "COc1cc([C@@H]2c3cc4c(cc3[C@@H](O[C@@H]3O[C@@H]5CO[C@@H](C)O[C@H]5[C@H](O)[C@H]3O)[C@H]3COC(=O)[C@H]23)OCO4)cc(OC)c1O [ETOPOSIDE]",
    "class name": "lower band"
  },
  {
    "compound": "COc1cc([C@@H]2c3cc4c(cc3[C@@H](NC(=O)[C@H](Cc3cc5ccccc5[nH]3)N3C(=O)C5C6CCC(O6)C5C3=O)[C@H]3COC(=O)[C@H]23)OCO4)cc(OC)c1O (stereo partly specified)",
    "class name": "upper band"
  },
  {
    "compound": "COc1cc([C@@H]2c3cc4c(cc3[C@@H](NC(=O)[C@H](C)N3C(=O)C5C6CCC(O6)C5C3=O)[C@H]3COC(=O)[C@H]23)OCO4)cc(OC)c1O (stereo partly specified)",
    "class name": "central band"
  },
  {
    "compound": "COc1cc([C@@H]2c3cc4c(cc3[C@@H](NC(=O)CN3C(=O)C5C6CCC(O6)C5C3=O)[C@H]3COC(=O)[C@H]23)OCO4)cc(OC)c1O (stereo partly specified)",
    "class name": "central band"
  },
  {
    "compound": "O=C1OC(=O)C2C3CCC(O3)C12 (stereo unspecified) [DEMETHYL-CANTHARIDIN]",
    "class name": "lower band"
  },
  {
    "compound": "COc1cc([C@@H]2c3cc4c(cc3[C@@H](NC(=O)[C@H](C(C)C)N3C(=O)C5C6CCC(O6)C5C3=O)[C@H]3COC(=O)[C@H]23)OCO4)cc(OC)c1O (stereo partly specified)",
    "class name": "upper band"
  },
  {
    "compound": "COc1cc([C@@H]2c3cc4c(cc3[C@@H](NC(=O)c3ccc(N5C(=O)C6C7CCC(O7)C6C5=O)cc3)[C@H]3COC(=O)[C@H]23)OCO4)cc(OC)c1O (stereo partly specified)",
    "class name": "upper band"
  },
  {
    "compound": "COc1cc([C@@H]2c3cc4c(cc3[C@@H](NC(=O)CCCN3C(=O)C5C6CCC(O6)C5C3=O)[C@H]3COC(=O)[C@H]23)OCO4)cc(OC)c1O (stereo partly specified)",
    "class name": "upper band"
  }
]
